- assay_method_text: Half life in Sprague-Dawley rat at 10 mg/kg,po measured upto 24 hrs by LC-MS analysis
- Format: ADME, organism-based
- test_conditions: in vivo
measurement_type: half-life (h)
All answers are understood in h, so give the number only.

Task item: Give a short answer stating reported half-life for `COc1cccc2c3c(oc12)CN(CCCCOc1ccc2ccc(=O)[nH]c2c1)CC3` .
Reply: 2.87

---

- assay_method_text: Ratio of drug concentration in brain to plasma in C57BL/6J mouse at 5 mg/kg,ip measured at 2 hrs by LC-MS analysis
- Format: ADME, organism-based
- test_conditions: read-out: BPR
The entries below are paired with their reported Kp at 2 h.
Output: the number by itself.

Use the examples below as a reference point.
chemical_smiles: COc1cccc2c3c(oc12)CN(CCCCOc1ccc2c(c1)NC(=O)CC2)CC3
Kp at 2 h: 0.439

chemical_smiles: CCOc1cccc2cc(CNCCCCOc3ccc4c(c3)NC(=O)CC4)oc12
Kp at 2 h: 0.113

chemical_smiles: COc1cccc2cc(CNCCCCOc3ccc4c(c3)NC(=O)CC4)oc12
Kp at 2 h: 0.384

Task item: Item `CCOc1cccc2cc(CNCCCCOc3ccc4ccc(=O)[nH]c4c3)oc12` : provide Kp at 2 h
Reply: 0.109

Task item: Supply measured Kp at 2 h of `COc1cccc2cc(CNCCCCOc3ccc4ccc(=O)[nH]c4c3)oc12` in your reply.
Reply: 0.434

---

- assay_method_text: Tmax in Sprague-Dawley rat at 10 mg/kg,po measured upto 24 hrs by LC-MS analysis
- Type: ADME, organism-based
- test_conditions: in vivo
measurement_type: Tmax (min)
Please respond with the number in min and leave the unit unwritten.

Task item: Read the entry `COc1cccc2c3c(oc12)CN(CCCCOc1ccc2ccc(=O)[nH]c2c1)CC3` and write its reported Tmax.
Reply: 30

---

- measurement_target: 5-hydroxytryptamine receptor 2C (Homo sapiens, UniProt P28335)
- Sequence (P28335 whole entry): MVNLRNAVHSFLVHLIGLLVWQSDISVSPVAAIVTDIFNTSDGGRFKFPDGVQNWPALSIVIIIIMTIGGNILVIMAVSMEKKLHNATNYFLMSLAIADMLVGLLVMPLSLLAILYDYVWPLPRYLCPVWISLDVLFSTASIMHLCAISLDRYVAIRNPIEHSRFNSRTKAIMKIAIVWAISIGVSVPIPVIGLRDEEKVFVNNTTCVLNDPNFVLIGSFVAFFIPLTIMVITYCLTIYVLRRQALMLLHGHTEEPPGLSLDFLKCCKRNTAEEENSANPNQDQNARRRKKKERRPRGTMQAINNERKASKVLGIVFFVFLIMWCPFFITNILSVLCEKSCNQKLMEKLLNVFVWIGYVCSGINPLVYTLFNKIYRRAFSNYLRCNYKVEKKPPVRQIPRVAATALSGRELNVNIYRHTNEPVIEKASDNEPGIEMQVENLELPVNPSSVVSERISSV
- assay_method_text: Displacement of [3H]-LSD from 5-HT2C receptor (unknown origin) expressed in HEK293T cell membrane incubated for 2 hrs by radioligand competitive binding based MicroBeta TriLux reader method
- Type: cell membranes
- test_conditions: read-out: Ki
Quick reference: Ki of the listed items.
The response must be a number in nM with no trailing unit.

chemical_smiles: COc1cccc2c3c(oc12)CN(CCCCOc1ccc2c(c1)NC(=O)CC2)CC3
measurement_target: 5-hydroxytryptamine receptor 2C (Homo sapiens, UniProt P28335)
measurement_type: Ki
reading: 611

# ---- query compound ----
Task item: Please give measured Ki of the following entry: `COc1cccc2c3c(oc12)CN(CCCCOc1ccc2ccc(=O)[nH]c2c1)CC3`
Reply: 555

---

- assay_method_text: Drug concentration in C57BL/6J mouse brain at 5 mg/kg,ip measured at 2 hrs by LC-MS analysis
- Format: ADME, organism-based
- test_conditions: read-out: Ct
Returns: string. Value is label 1 if measured concentration at 2 h is below 6 ng/mL, and label 0 if it is greater than or equal to it.

Task item: Here's an entry: `COc1cccc2c3c(oc12)CN(CCCCOc1ccc2c(c1)NC(=O)CC2)CC3` . Is its concentration at 2 h below 6 ng/mL?
Reply: label 0

Task item: Criterion: concentration at 2 h strictly below 6 ng/mL. Is it met by `COc1cccc2cc(CNCCCCOc3ccc4c(c3)NC(=O)CC4)oc12` ?
Reply: label 1

Task item: Field: below-cutoff. Rule: recorded concentration at 2 h strictly less than 6 ng/mL. Subject: `COc1cccc2cc(CNCCCCOc3ccc4ccc(=O)[nH]c4c3)oc12`
Reply: label 1

Task item: Does `CCOc1cccc2cc(CNCCCCOc3ccc4ccc(=O)[nH]c4c3)oc12` have concentration at 2 h strictly under 6 ng/mL?
Reply: label 1
